Provide the reported MIC of each item.
- Test system: Pseudomonas aeruginosa
- assay-overview: Antibacterial activity against Pseudomonas aeruginosa FE53U with inactivated mexZ and galU genes by microdilution method
- Assay type: functional
One number for each entry, in µg/mL.

compound	study-system	MIC [µg/mL]
CO/N=C(\C(=O)N[C@@H]1C(=O)N2C(C(=O)[O-])=C(C[N+]3(C)CCCC3)CS[C@H]12)c1csc(N)n1 [CEFEPIME]	Pseudomonas aeruginosa	16
CCN[C@@H]1C[C@H](N)[C@@H](O[C@H]2OC(CN)=CC[C@H]2N)[C@H](O)[C@H]1O[C@H]1OC[C@](C)(O)[C@H](NC)[C@H]1O	Pseudomonas aeruginosa	16
NC[C@H]1O[C@H](O[C@H]2[C@H](O)[C@@H](O[C@H]3O[C@H](CO)[C@@H](O)[C@H](N)[C@H]3O)[C@H](N)C[C@@H]2N)[C@H](O)[C@@H](O)[C@@H]1O	Pseudomonas aeruginosa	256
NCC[C@H](O)C(=O)N[C@@H]1C[C@H](N)[C@@H](O[C@H]2O[C@H](CN)[C@@H](O)[C@H](O)[C@H]2O)[C@H](O)[C@H]1O[C@H]1O[C@H](CO)[C@@H](O)[C@H](N)[C@H]1O	Pseudomonas aeruginosa	16

Now for another entry.
// field: MIC; key: NC[C@H]1O[C@H](O[C@H]2[C@H](O)[C@@H](O[C@H]3O[C@H](CO)[C@@H](O)[C@H](N)[C@H]3O)[C@H](N)C[C@@H]2N)[C@H](N)C[C@@H]1O ; value = 2

---

- System: Pseudomonas aeruginosa
- assay-overview: Antibacterial activity against Pseudomonas aeruginosa FE57GZ with inactivated rplY, nuoG and mexZ genes […]
- Format: functional
Provide the reported MIC of each item.
Numbers only, in µg/mL.

Below, each entry is followed by its recorded MIC result.
compound	MIC (µg/mL)
CCN[C@@H]1C[C@H](N)[C@@H](O[C@H]2OC(CN)=CC[C@H]2N)[C@H](O)[C@H]1O[C@H]1OC[C@](C)(O)[C@H](NC)[C@H]1O	128
CO/N=C(\C(=O)N[C@@H]1C(=O)N2C(C(=O)[O-])=C(C[N+]3(C)CCCC3)CS[C@H]12)c1csc(N)n1 [CEFEPIME]	16
O=C(O)c1cn(C2CC2)c2cc(N3CCNCC3)c(F)cc2c1=O	1

For each of the items listed, what is its MIC?
1. NC[C@H]1O[C@H](O[C@H]2[C@H](O)[C@@H](O[C@H]3O[C@H](CO)[C@@H](O)[C@H](N)[C@H]3O)[C@H](N)C[C@@H]2N)[C@H](O)[C@@H](O)[C@@H]1O
2. NC[C@H]1O[C@H](O[C@H]2[C@H](O)[C@@H](O[C@H]3O[C@H](CO)[C@@H](O)[C@H](N)[C@H]3O)[C@H](N)C[C@@H]2N)[C@H](N)C[C@@H]1O
3. NCC[C@H](O)C(=O)N[C@@H]1C[C@H](N)[C@@H](O[C@H]2O[C@H](CN)[C@@H](O)[C@H](O)[C@H]2O)[C@H](O)[C@H]1O[C@H]1O[C@H](CO)[C@@H](O)[C@H](N)[C@H]1O

[1020, 4, 32]

---

- System: Pseudomonas aeruginosa
- assay-overview: Antibacterial activity against Pseudomonas aeruginosa FE10 with inactivated nuoG gene by microdilution method
- Assay type: functional
quantity-name: MIC (µg/mL)
Answers are plain numbers, in µg/mL.

Solved cases (4 shown):
compound	unit-label	MIC
NCC[C@H](O)C(=O)N[C@@H]1C[C@H](N)[C@@H](O[C@H]2O[C@H](CN)[C@@H](O)[C@H](O)[C@H]2O)[C@H](O)[C@H]1O[C@H]1O[C@H](CO)[C@@H](O)[C@H](N)[C@H]1O	µg/mL	8
CO/N=C(\C(=O)N[C@@H]1C(=O)N2C(C(=O)[O-])=C(C[N+]3(C)CCCC3)CS[C@H]12)c1csc(N)n1 [CEFEPIME]	µg/mL	4
CCN[C@@H]1C[C@H](N)[C@@H](O[C@H]2OC(CN)=CC[C@H]2N)[C@H](O)[C@H]1O[C@H]1OC[C@](C)(O)[C@H](NC)[C@H]1O	µg/mL	8
NC[C@H]1O[C@H](O[C@H]2[C@H](O)[C@@H](O[C@H]3O[C@H](CO)[C@@H](O)[C@H](N)[C@H]3O)[C@H](N)C[C@@H]2N)[C@H](N)C[C@@H]1O	µg/mL	1

# ---- query compound ----
The compound listed as NC[C@H]1O[C@H](O[C@H]2[C@H](O)[C@@H](O[C@H]3O[C@H](CO)[C@@H](O)[C@H](N)[C@H]3O)[C@H](N)C[C@@H]2N)[C@H](O)[C@@H](O)[C@@H]1O shows MIC equal to 256

---

- Test system: Pseudomonas aeruginosa
- assay-overview: Antibacterial activity against Pseudomonas aeruginosa FE57GU with inactivated rplY, nuoG and galU genes by […]
- Assay type: functional
Labelling: MIC reported below 30 µg/mL becomes t; at or above becomes f.

Does the reported MIC of CCN[C@@H]1C[C@H](N)[C@@H](O[C@H]2OC(CN)=CC[C@H]2N)[C@H](O)[C@H]1O[C@H]1OC[C@](C)(O)[C@H](NC)[C@H]1O stay below 30 µg/mL? f

Given the entry CO/N=C(\C(=O)N[C@@H]1C(=O)N2C(C(=O)[O-])=C(C[N+]3(C)CCCC3)CS[C@H]12)c1csc(N)n1 [CEFEPIME] , would its reported MIC be below 30 µg/mL? t

Given the entry NC[C@H]1O[C@H](O[C@H]2[C@H](O)[C@@H](O[C@H]3O[C@H](CO)[C@@H](O)[C@H](N)[C@H]3O)[C@H](N)C[C@@H]2N)[C@H](N)C[C@@H]1O , would its reported MIC be below 30 µg/mL? t

A record lists NC[C@H]1O[C@H](O[C@H]2[C@H](O)[C@@H](O[C@H]3O[C@H](CO)[C@@H](O)[C@H](N)[C@H]3O)[C@H](N)C[C@@H]2N)[C@H](O)[C@@H](O)[C@@H]1O . Is its MIC below 30 µg/mL? f

Report whether reported MIC is lower than 30 µg/mL (strictly) for NCC[C@H](O)C(=O)N[C@@H]1C[C@H](N)[C@@H](O[C@H]2O[C@H](CN)[C@@H](O)[C@H](O)[C@H]2O)[C@H](O)[C@H]1O[C@H]1O[C@H](CO)[C@@H](O)[C@H](N)[C@H]1O f

---

Record form. Attribute: MIC. Fill in for each entry.
- Tested on: Pseudomonas aeruginosa
- assay-overview: Antibacterial activity against Pseudomonas aeruginosa FE10U with inactivated nuoG and galU genes by microdilution method
- Format: functional
Give bare numbers, in µg/mL.

compound	quantity-name	assay-result
CO/N=C(\C(=O)N[C@@H]1C(=O)N2C(C(=O)[O-])=C(C[N+]3(C)CCCC3)CS[C@H]12)c1csc(N)n1 [CEFEPIME]	MIC	4

Go through the list and state MIC for each entry.
1. NC[C@H]1O[C@H](O[C@H]2[C@H](O)[C@@H](O[C@H]3O[C@H](CO)[C@@H](O)[C@H](N)[C@H]3O)[C@H](N)C[C@@H]2N)[C@H](O)[C@@H](O)[C@@H]1O
2. CCN[C@@H]1C[C@H](N)[C@@H](O[C@H]2OC(CN)=CC[C@H]2N)[C@H](O)[C@H]1O[C@H]1OC[C@](C)(O)[C@H](NC)[C@H]1O
3. NCC[C@H](O)C(=O)N[C@@H]1C[C@H](N)[C@@H](O[C@H]2O[C@H](CN)[C@@H](O)[C@H](O)[C@H]2O)[C@H](O)[C@H]1O[C@H]1O[C@H](CO)[C@@H](O)[C@H](N)[C@H]1O

[256, 8, 8]

# compound NC[C@H]1O[C@H](O[C@H]2[C@H](O)[C@@H](O[C@H]3O[C@H](CO)[C@@H](O)[C@H](N)[C@H]3O)[C@H](N)C[C@@H]2N)[C@H](N)C[C@@H]1O ; its MIC = 2
